# System under test: T1, CAPRIN-1 protein expressed on the membrane surface of human cancer cells (human, UniProt Q14444 2-709)
# T1 sequence (looked up): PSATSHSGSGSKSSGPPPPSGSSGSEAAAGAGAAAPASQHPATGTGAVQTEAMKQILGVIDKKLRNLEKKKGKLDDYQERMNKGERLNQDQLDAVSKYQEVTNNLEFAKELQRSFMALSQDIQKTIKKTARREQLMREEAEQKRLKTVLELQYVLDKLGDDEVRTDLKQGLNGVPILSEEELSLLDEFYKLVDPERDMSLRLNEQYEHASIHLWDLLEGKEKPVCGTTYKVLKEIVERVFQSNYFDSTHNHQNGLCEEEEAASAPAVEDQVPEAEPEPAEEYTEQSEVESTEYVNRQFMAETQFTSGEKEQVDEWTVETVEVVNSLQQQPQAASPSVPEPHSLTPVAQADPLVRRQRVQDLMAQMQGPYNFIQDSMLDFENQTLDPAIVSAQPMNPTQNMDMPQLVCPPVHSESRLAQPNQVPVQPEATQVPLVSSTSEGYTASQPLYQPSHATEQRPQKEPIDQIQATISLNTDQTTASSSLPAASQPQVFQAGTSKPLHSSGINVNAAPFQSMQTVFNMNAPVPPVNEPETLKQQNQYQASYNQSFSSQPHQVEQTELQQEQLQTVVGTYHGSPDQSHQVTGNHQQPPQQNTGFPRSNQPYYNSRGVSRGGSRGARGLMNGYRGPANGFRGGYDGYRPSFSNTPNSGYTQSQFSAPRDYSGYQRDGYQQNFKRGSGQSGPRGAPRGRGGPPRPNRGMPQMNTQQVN
# Assay protocol: cell-based or functional assay
The entries below come with measured ADCC cytotoxic activity (51Cr release) on TT values attached.
Measurement label: ADCC cytotoxic activity (51Cr release) on TT

# Binder, Endpoint value
data = [
    ("humanized antibody #4 (antibody, V domains shown) VH: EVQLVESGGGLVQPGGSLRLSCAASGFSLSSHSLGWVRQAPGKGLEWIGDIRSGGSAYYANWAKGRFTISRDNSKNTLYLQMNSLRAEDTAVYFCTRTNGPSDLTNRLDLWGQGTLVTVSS VL: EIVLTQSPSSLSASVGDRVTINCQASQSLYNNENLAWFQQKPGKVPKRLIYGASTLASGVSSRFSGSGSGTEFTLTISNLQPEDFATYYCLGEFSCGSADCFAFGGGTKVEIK", "≥ 35%"),
    ("humanized antibody #10 (antibody, V domains shown) VH: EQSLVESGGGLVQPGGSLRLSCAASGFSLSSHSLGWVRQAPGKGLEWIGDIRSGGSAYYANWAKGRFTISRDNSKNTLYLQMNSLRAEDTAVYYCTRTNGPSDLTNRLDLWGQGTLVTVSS VL: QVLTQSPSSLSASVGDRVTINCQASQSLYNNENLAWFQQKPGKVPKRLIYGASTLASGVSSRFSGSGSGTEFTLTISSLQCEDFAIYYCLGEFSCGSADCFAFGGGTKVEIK", "≥ 42%"),
    ("humanized antibody #6 (antibody, V domains shown) VH: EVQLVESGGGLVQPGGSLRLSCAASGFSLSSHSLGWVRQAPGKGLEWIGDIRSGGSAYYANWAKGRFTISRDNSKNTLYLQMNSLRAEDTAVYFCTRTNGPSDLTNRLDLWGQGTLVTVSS VL: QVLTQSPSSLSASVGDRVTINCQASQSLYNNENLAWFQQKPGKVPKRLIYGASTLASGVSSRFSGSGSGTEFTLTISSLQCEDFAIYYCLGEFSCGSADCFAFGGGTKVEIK", "≥ 42%"),
    ("humanized antibody #5 (antibody, V domains shown) VH: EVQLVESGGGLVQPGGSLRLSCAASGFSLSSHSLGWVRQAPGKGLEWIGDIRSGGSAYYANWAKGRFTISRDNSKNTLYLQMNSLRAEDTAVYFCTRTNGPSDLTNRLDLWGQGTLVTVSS VL: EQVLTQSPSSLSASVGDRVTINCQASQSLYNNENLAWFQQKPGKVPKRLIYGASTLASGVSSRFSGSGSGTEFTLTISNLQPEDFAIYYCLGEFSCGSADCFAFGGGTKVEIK", "≥ 35%"),
]
